Source: patent US11629201B2

system: PC-3 PIP/flu tumor-bearing mice; test: Biodistribution studies in PC-3 PIP/flu tumor-bearing mice; settings: 48 h p.i.
OBSERVED PROPERTY: Liver (% IA/g)
Give the value in % IA/g but do not write % IA/g after it.

Use the examples below as a reference point.
| COMPOUND | Liver, % IA/g |
| --- | --- |
| O=C(O)CCC(NC(=O)NC(CCCCNC(=O)C(Cc1ccc2ccccc2c1)NC(=O)C1CCC(n2cc(CC(NC(=O)CN3CCN(CC(=O)O)CCN(CC(=O)O)CCN(CC(=O)O)CC3)C(=O)NC(CCCCNC(=O)CCCc3ccc(I)cc3)C(=O)O)nn2)CC1)C(=O)O)C(=O)O (stereo not shown) [^177Lu-PSMA-ALB-01, metal not drawn] | 3.03 |
| O=C(O)CCC(NC(=O)NC(CCCCNC(=O)C(Cc1ccc2ccccc2c1)NC(=O)C1CCC(CNC(=O)C(CCCCNC(=O)CN2CCN(CC(=O)O)CCN(CC(=O)O)CCN(CC(=O)O)CC2)NC(=O)CC(NC(=O)CC(NC(=O)CCCc2ccc(I)cc2)C(=O)O)C(=O)O)CC1)C(=O)O)C(=O)O (stereo not shown) [^177Lu-PSMA-ALB-05, metal not drawn] | 0.56 |

# get_value(readout= Liver, system= PC-3 PIP/flu tumor-bearing mice) for O=C(O)CCC(NC(=O)NC(CCCCNC(=O)C(Cc1ccc2ccccc2c1)NC(=O)C1CCC(CNC(=O)C(CCCCNC(=O)CCCc2ccc(I)cc2)NC(=O)CN2CCN(CC(=O)O)CCN(CC(=O)O)CCN(CC(=O)O)CC2)CC1)C(=O)O)C(=O)O (stereo not shown) [^177Lu-PSMA-ALB-03, metal not drawn]
2.53

# get_value(readout= Liver, system= PC-3 PIP/flu tumor-bearing mice) for O=C(O)CCC(NC(=O)NC(CCCCNC(=O)C(Cc1ccc2ccccc2c1)NC(=O)C1CCC(CNC(=O)C(CCCCNC(=O)CN2CCN(CC(=O)O)CCN(CC(=O)O)CCN(CC(=O)O)CC2)NC(=O)CCCCCCC(=O)NC(CCCCNC(=O)CCCc2ccc(I)cc2)C(=O)O)CC1)C(=O)O)C(=O)O (stereo not shown) [^177Lu-PSMA-ALB-04, metal not drawn]
13.1

----------
system: PC-3 PIP/flu tumor-bearing mice; assay: Biodistribution studies in PC-3 PIP/flu tumor-bearing mice; settings: 48 h p.i.
OBSERVED PROPERTY: Heart (% IA/g)
Give the value in % IA/g but do not write % IA/g after it.

| COMPOUND | Heart (% IA/g) |
| --- | --- |
| O=C(O)CCC(NC(=O)NC(CCCCNC(=O)C(Cc1ccc2ccccc2c1)NC(=O)C1CCC(CNC(=O)C(CCCCNC(=O)CN2CCN(CC(=O)O)CCN(CC(=O)O)CCN(CC(=O)O)CC2)NC(=O)CCCCCCC(=O)NC(CCCCNC(=O)CCCc2ccc(I)cc2)C(=O)O)CC1)C(=O)O)C(=O)O (stereo not shown) [^177Lu-PSMA-ALB-04, metal not drawn] | 13.6 |
| O=C(O)CCC(NC(=O)NC(CCCCNC(=O)C(Cc1ccc2ccccc2c1)NC(=O)C1CCC(CNC(=O)C(CCCCNC(=O)CN2CCN(CC(=O)O)CCN(CC(=O)O)CCN(CC(=O)O)CC2)NC(=O)CC(NC(=O)CC(NC(=O)CCCc2ccc(I)cc2)C(=O)O)C(=O)O)CC1)C(=O)O)C(=O)O (stereo not shown) [^177Lu-PSMA-ALB-05, metal not drawn] | 0.54 |
| O=C(O)CCC(NC(=O)NC(CCCCNC(=O)C(Cc1ccc2ccccc2c1)NC(=O)C1CCC(CNC(=O)C(CCCCNC(=O)CCCc2ccc(I)cc2)NC(=O)CN2CCN(CC(=O)O)CCN(CC(=O)O)CCN(CC(=O)O)CC2)CC1)C(=O)O)C(=O)O (stereo not shown) [^177Lu-PSMA-ALB-03, metal not drawn] | 4.40 |

Would you kindly share the measured Heart for O=C(O)CCC(NC(=O)NC(CCCCNC(=O)C(Cc1ccc2ccccc2c1)NC(=O)C1CCC(n2cc(CC(NC(=O)CN3CCN(CC(=O)O)CCN(CC(=O)O)CCN(CC(=O)O)CC3)C(=O)NC(CCCCNC(=O)CCCc3ccc(I)cc3)C(=O)O)nn2)CC1)C(=O)O)C(=O)O (stereo not shown) [^177Lu-PSMA-ALB-01, metal not drawn] ?
4.42
